For each of the compounds below, state its pIC50.
system: HEK-293T; test: Cytotoxicity against HEK293T cells assessed as reduction in cell viability incubated for 48 hrs by CCK8 assay; settings: Homo sapiens
pIC50: −log10 of the molar value.

As a guide, the following entries are already answered.
In [3]: df
Out[3]:
                                   molecule  observed_result
0  O=C(NCCNS(=O)(=O)c1ccc(-c2ccccc2O[C@H]2CC[C@@H](O)CC2)s1)Nc1ccc([N+](=O)[O-])cc1             5.07
1  COc1cccc(NC(=S)NCCNS(=O)(=O)c2sccc2-c2ccc(C)cc2Oc2ccc(O)c(O)c2)c1           < 4.30
2  Cc1ccc(-c2ccsc2S(=O)(=O)NCCNC(=S)Nc2cccc([N+](=O)[O-])c2)c(Oc2ccc(O)c(O)c2)c1             5.10
3  COc1ccc(Oc2ccc([N+](=O)[O-])cc2-c2ccsc2S(=O)(=O)N2CCN(C(=S)Nc3ccc(Cl)cc3)CC2)cc1OC           < 4.30
4  COc1ccc(Oc2ccccc2-c2ccsc2S(=O)(=O)N2CCN(C(=S)Nc3ccc([N+](=O)[O-])cc3)CC2)cc1OC           < 4.70
5  O=S(=O)(NCCNC(=S)Nc1cc(C(F)(F)F)cc(C(F)(F)F)c1)c1ccc(-c2ccccc2OCc2cccc(O)c2)s1           < 4.70

Asked: Data request, read-out pIC50, for `COc1ccc(Oc2ccccc2-c2ccsc2S(=O)(=O)N2CCN(C(=O)Nc3ccc([N+](=O)[O-])cc3)CC2)cc1OC`
Given back: < 4.70

---

assay: Cytotoxicity against HEK293T cells assessed as cell viability at 20 uM incubated for 48 hrs by CCK8 assay relative to control; type: cell-based, HEK-293T; conditions: human, read-out: Activity
# condition met = viability at 48 h, 20 µM below 40% (exclusive); condition not met = viability at 48 h, 20 µM at/above 40%

In [3]: df
Out[3]:
                                   molecule  qualitative_label
0  O=C(NCCNS(=O)(=O)c1ccc(-c2ccccc2O[C@H]2CC[C@H](O)CC2)s1)Nc1cc(C(F)(F)F)cc(C(F)(F)F)c1  condition not met

Asked: A record lists `COc1ccc(Oc2ccccc2-c2ccsc2S(=O)(=O)N2CCN(C(=S)Nc3cc(C(F)(F)F)cc(C(F)(F)F)c3)CC2)cc1OC` . Is its viability at 48 h, 20 µM below 40%?
Given back: condition not met

Asked: `Cc1ccc(-c2ccsc2S(=O)(=O)NCCNC(=O)Nc2ccc([N+](=O)[O-])cc2)c(Oc2ccc(O)c(O)c2)c1` ?
Given back: condition not met

Asked: Field entry: `O=C(Nc1cc(C(F)(F)F)cc(C(F)(F)F)c1)N1CCN(S(=O)(=O)c2sccc2-c2ccccc2Oc2ccc(O)c(O)c2)CC1`
Given back: condition met

---

biological target: Apoptosis regulator Bcl-2 (Homo sapiens, UniProt P10415)
Sequence (P10415 whole entry): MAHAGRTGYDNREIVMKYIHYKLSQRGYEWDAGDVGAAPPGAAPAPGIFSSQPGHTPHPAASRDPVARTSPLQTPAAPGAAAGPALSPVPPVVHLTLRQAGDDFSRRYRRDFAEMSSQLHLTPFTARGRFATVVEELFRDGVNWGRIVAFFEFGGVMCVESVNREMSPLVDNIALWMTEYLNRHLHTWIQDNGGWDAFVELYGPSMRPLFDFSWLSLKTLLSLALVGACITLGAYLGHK
Could you please report measured Ki for the items listed next?
Record the result as number plus unit.

Recorded results for 3 molecules are shown here.
In [3]: df
Out[3]:
                                   molecule  observed_result
0  Cc1ccc(-c2ccsc2S(=O)(=O)NCCNC(=O)Nc2ccc([N+](=O)[O-])cc2)c(Oc2ccc(O)c(O)c2)c1            13 µM
1  O=S(=O)(NCCNC(=S)Nc1cc(C(F)(F)F)cc(C(F)(F)F)c1)c1ccc(-c2ccccc2Oc2ccc(O)c(O)c2)s1           2.6 µM
2  O=C(NCCNS(=O)(=O)c1ccc(-c2ccccc2Oc2ccc(O)c(O)c2)s1)Nc1cc(Cl)cc(Cl)c1           3.6 µM

For each listed entry, give its Ki.
1. CC(C)c1ccc(Oc2ccc(O)c(O)c2)c(-c2ccsc2S(=O)(=O)NCCNC(=S)Nc2cc(C(F)(F)F)cc(C(F)(F)F)c2)c1
2. O=C(NCCNS(=O)(=O)c1sccc1-c1ccccc1Oc1ccc(O)c(O)c1)Nc1cc(C(F)(F)F)cc(C(F)(F)F)c1

Given back:
["2.4 µM", "17 µM"]

Data provenance is ChEMBL document CHEMBL5034015.
